target: full length SGK1 (Homo sapiens, UniProt O00141); construct: 125 μM full length SGK1 (Life Technologies Part #PR7358A); purchased Life Technologies PR7358A; experiment: SGK1 inhibition Assay A (Caliper LabChip electrophoretic separation of fluorescent peptide substrate and phosphorylated product); format: biochemical; details: Assay A; 20 μM ATP, 40 min incubation; read-out: SGK1 IC50
Counter-ions that a name gives are not always drawn.
result type: IC50 (nM)
Respond numerically; units are nM and should not be typed.

Consider the following illustrative entries.
* CC(=O)N1CC=C(c2cc(N3CCC[C@@H](NC(=O)c4cccc(C#N)c4)C3)c3c(N)ncnn23)C1 | 87
* CNCCOc1cc(Cl)sc1C(=O)N[C@@H]1CCCN(c2cc(C3=CCN(C(C)=O)C3)n3ncnc(N)c23)C1 [Example 332D] | 10
* COC(=O)N1CC=C(c2cc(N3CCC[C@@H](NC(=O)c4sc(Cl)cc4OCCN(C)C)C3)c3c(N)ncnn23)C1 [Example 173, TFA] | 4
* CS(=O)(=O)c1ccc(-c2cc(N3CCC[C@@H](NC(=O)c4ccnc(N5CCOCC5)c4)C3)c3c(N)ncnn23)cc1 | 37
* CC(=O)N1CC=C(c2cc(N3CCC[C@@H](NC(=O)c4sc(Cl)cc4OC4CCN(CC(C)(C)O)CC4)C3)c3c(N)ncnn23)C1 | 9

Data point: CC(=O)N1CC=C(c2cc(N3CCC[C@@H](NC(=O)c4sc(Cl)cc4OC4CCNCC4F)C3)c3c(N)ncnn23)C1 (stereo partly shown) [Example 603] ; IC50 = 7

Per the records, this compound ( "Nc1ncnn2c(-c3cncnc3)cc(N3CCC[C@@H](NC(=O)c4sc(Cl)cc4OC4CCN(C5COC5)CC4)C3)c12" ) has IC50 equal to 26

###

Target: full length SGK1 (Homo sapiens)
Construct: 125 μM full length SGK1 (Life Technologies Part #PR7358A); purchased Life Technologies PR7358A
Sequence (O00141 1-431): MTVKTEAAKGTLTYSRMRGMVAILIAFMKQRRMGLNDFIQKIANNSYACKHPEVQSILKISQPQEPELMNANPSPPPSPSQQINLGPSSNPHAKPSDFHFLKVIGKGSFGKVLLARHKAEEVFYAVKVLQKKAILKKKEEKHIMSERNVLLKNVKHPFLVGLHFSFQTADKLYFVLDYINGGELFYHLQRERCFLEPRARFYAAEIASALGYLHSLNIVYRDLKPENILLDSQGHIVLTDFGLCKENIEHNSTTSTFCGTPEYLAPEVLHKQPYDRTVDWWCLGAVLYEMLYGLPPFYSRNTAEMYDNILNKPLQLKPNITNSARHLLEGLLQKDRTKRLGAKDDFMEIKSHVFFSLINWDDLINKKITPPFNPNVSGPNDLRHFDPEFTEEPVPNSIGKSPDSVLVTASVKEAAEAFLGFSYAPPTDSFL
Experiment: SGK1 inhibition Assay A (Caliper LabChip electrophoretic separation of fluorescent peptide substrate and phosphorylated product)
Type: biochemical
Conditions: Assay A; 20 μM ATP, 40 min incubation; read-out: SGK1 IC50
Structures can show the parent of a compound that is named as a salt.
result type: pIC50
To interpret pIC50, take it as minus log10 of a concentration measured in moles per litre.

Known value: full length SGK1 (Homo sapiens) pIC50 of the molecule CS(=O)(=O)c1ccc(-c2cc(N3CC[C@@H](F)[C@@H](NC(=O)c4ccc(Cl)s4)C3)c3c(N)ncnn23)cc1 (relative stereo) [Example 143, TFA] equals 8.00

Record for "COC(=O)N1CC=C(c2cc(N3CCC[C@@H](NC(=O)c4sc(C(F)F)cc4OCC4CCNCC4)C3)c3c(N)ncnn23)C1" under target or system full length SGK1 (Homo sapiens): pIC50 reported as 8.10

Bench note, full length SGK1 (Homo sapiens): entry "COC(=O)N1CC=C(c2cc(N3CCC[C@@H](NC(=O)c4n[nH]c5ccc(N)cc45)C3)c3c(N)ncnn23)C1" , its pIC50 = 7.28

Form: item "CCn1cc(-c2cc(N3CCC[C@@H](NC(=O)c4ccc(Cl)s4)C3)c3c(N)ncnn23)ccc1=O" ; test system full length SGK1 (Homo sapiens); pIC50: 8.22

Test item "CS(=O)(=O)c1ccc(-c2cc(N3CCC[C@@H](NC(=O)c4ccno4)C3)c3c(N)ncnn23)cc1" ; full length SGK1 (Homo sapiens); reported pIC50 was 6.55

Entry "CC(=O)N1CC=C(c2cc(N3CCC[C@@H](NC(=O)c4cc(C)cc(N5CCN(C)CC5)n4)C3)c3c(N)ncnn23)C1" , full length SGK1 (Homo sapiens) data, pIC50 value: 7.60

# lookup: "CC(=O)N1CC=C(c2cc(N3CCC[C@@H](NC(=O)c4ccnc(OCCN5CCN(C)CC5)c4)C3)c3c(N)ncnn23)C1" on full length SGK1 (Homo sapiens), pIC50 = 7.23

full length SGK1 (Homo sapiens) data for "CC(=O)N1CC=C(c2cc(N3CCC[C@@H](NC(=O)c4ccc(CO)cc4)C3)c3c(N)ncnn23)C1" ; its pIC50: 7.74

Assay full length SGK1 (Homo sapiens), sample CC(=O)N1CC=C(c2cc(N3CCC[C@@H](NC(=O)c4sc(Cl)cc4OCC4CCCN4C)C3)c3c(N)ncnn23)C1 (single isomer, unassigned) , pIC50 read: 8.40

Hey, full length SGK1 (Homo sapiens) data for "CC(C)n1nccc1-c1cc(N2CCC[C@@H](NC(=O)c3cccc(N4CCN(C)CC4)n3)C2)c2c(N)ncnn12" : pIC50 came out at 6.11

###

Reported log10 of IC50 by item:
Biological target: full length SGK1 (Homo sapiens, UniProt O00141)
Construct: 125 μM full length SGK1 (Life Technologies Part #PR7358A); purchased Life Technologies PR7358A
Sequence (O00141 1-431): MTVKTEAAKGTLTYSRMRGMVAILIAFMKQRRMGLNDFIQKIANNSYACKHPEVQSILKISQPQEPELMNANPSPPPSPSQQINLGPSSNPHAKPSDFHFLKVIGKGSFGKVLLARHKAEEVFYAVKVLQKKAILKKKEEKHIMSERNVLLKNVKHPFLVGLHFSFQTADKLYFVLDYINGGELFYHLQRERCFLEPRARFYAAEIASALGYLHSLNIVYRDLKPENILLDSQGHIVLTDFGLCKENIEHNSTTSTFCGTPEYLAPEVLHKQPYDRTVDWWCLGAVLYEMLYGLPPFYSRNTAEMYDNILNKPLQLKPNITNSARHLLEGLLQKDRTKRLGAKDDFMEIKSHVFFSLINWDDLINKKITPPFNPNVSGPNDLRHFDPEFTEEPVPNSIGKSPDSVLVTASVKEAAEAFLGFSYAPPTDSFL
Test: SGK1 inhibition Assay A (Caliper LabChip electrophoretic separation of fluorescent peptide substrate and phosphorylated product)
Assay type: biochemical
Settings: Assay A; 20 μM ATP, 40 min incubation; read-out: SGK1 IC50
Counter-ions that a name gives are not always drawn.
Values are log10 of IC50 in nM.

• Nc1ncnn2c(C3=CCN(C(=O)[C@H]4CCOC4)C3)cc(N3CCC[C@@H](NC(=O)c4ccc(Cl)s4)C3)c12 [Example 888] = 0.78
• COC(=O)N1CC=C(c2cc(N3CCC[C@@H](NC(=O)c4sc(Cl)cc4OC4CCNC4)C3)c3c(N)ncnn23)C1 (stereo partly shown) [Example 570] = 0.48
• CC(=O)N1CC=C(c2cc(N3CCC[C@@H](NC(=O)c4sc(C(F)F)cc4OCC4CCNCC4)C3)c3c(N)ncnn23)C1 [Example 350] = 1.11

The reported value for Nc1ncnn2c(-c3cccc(OC(F)F)c3)cc(N3CCC[C@@H](NC(=O)c4ccc(Cl)s4)C3)c12 [Example 229, TFA] in terms of log10 of IC50 is 1.66

CC(=O)N1CC=C(c2cc(N3CCC[C@@H](NC(=O)c4sc(Cl)cc4OC4CCNCC4F)C3)c3c(N)ncnn23)C1 (stereo partly shown) [Example 602] has a reported log10 of IC50 of 0.48

In plain terms, Nc1ncnn2c(-c3ccnc(C(F)(F)F)c3)cc(N3CCC[C@@H](NC(=O)c4sc(Cl)cc4OCCN4CCOCC4)C3)c12 [Example 267] has a documented log10 of IC50 of 0.95

log10 of IC50 in this record for CC(=O)N1CC=C(c2cc(N3CCC[C@@H](NC(=O)c4csc(-c5ccccc5)n4)C3)c3c(N)ncnn23)C1 [Example 453] : 0.85

###

Target: full length SGK1 (Homo sapiens, UniProt O00141)
Construct: 125 μM full length SGK1 (Life Technologies Part #PR7358A); purchased Life Technologies PR7358A
Sequence (O00141 1-431): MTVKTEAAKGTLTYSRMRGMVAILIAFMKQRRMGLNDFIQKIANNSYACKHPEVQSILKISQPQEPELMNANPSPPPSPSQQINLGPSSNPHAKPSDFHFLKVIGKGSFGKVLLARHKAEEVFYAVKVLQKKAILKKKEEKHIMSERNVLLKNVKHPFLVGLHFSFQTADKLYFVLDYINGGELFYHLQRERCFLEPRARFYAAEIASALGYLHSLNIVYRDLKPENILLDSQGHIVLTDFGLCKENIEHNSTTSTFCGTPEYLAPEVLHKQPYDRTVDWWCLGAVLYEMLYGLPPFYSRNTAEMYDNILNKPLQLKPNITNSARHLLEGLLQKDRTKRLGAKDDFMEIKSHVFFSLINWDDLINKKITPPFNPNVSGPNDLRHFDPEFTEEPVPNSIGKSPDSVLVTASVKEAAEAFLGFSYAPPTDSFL
Experiment: SGK1 inhibition Assay A (Caliper LabChip electrophoretic separation of fluorescent peptide substrate and phosphorylated product)
Assay type: biochemical
Details: Assay A; 20 μM ATP, 40 min incubation; read-out: SGK1 IC50
Counter-ions that a name gives are not always drawn.
result type: pIC50
pIC50 is a log-scale quantity: -log10 of the concentration expressed in molar.

Please review the following examples before continuing.
- NC(=O)c1ccc(-c2cc(N3CCC[C@@H](NC(=O)c4sc(C5CC5)cc4OC4CNC4)C3)c3c(N)ncnn23)cc1F: 9.40
- CS(=O)(=O)c1ccc(-c2cc(N3CCC[C@@H](NC(=O)c4ccncc4)C3)c3c(N)ncnn23)cc1: 7.92

Could you now look at the following compound, please?
For this compound ( CS(=O)(=O)c1ccc(-c2cc(N3CCC[C@@H](NC(=O)c4ccc(C5CC5)s4)C3)c3c(N)ncnn23)cc1 [Example 92, TFA] ), measured pIC50 is 8.00

All figures here come from patent US20260250290A1.
